Origin of the recorded values: paper PMC10786891

ASSAY_SYSTEM: T1, EsCas13d, nuclease-dead (Eubacterium siraeum, UniProt B0MS50, R295A;H300A;R849A;H854A)
T1 sequence: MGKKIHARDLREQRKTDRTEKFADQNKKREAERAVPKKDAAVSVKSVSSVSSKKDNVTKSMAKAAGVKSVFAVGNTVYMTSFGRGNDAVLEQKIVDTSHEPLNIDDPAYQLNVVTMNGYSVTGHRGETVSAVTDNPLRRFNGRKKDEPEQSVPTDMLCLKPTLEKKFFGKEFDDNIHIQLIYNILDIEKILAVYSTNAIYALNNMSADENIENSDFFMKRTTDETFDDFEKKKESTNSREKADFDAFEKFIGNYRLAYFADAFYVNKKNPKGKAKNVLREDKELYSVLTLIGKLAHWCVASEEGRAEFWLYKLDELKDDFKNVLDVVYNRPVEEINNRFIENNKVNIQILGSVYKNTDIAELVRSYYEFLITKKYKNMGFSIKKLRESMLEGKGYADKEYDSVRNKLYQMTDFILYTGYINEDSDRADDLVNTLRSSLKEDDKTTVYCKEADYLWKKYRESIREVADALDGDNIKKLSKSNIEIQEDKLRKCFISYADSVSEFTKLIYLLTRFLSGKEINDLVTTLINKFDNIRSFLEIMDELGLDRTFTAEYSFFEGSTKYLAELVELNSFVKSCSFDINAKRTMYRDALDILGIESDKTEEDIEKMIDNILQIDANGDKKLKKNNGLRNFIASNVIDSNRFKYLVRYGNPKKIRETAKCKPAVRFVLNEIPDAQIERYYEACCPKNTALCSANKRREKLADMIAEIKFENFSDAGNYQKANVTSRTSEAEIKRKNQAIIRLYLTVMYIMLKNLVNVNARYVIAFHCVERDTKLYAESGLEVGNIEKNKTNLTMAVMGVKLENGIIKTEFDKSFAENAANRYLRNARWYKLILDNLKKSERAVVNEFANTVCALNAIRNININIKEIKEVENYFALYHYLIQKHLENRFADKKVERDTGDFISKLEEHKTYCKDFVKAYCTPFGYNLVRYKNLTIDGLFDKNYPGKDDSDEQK
ASSAY_NAME: crRNA (strand 1, pre-loaded); Mg2+; 40 mM Tris-HCl pH 7.5, 150 mM NaCl, 6 mM MgCl2, 1 mM DTT, 0.1% Tween-20, 0.2 mg/ml BSA; 25 C; 10 min per concentration, then washed
MEASUREMENT_SETUP: tags: His6-TwinStrep-SUMO cleaved; N-terminal SNAP kept (SNAP-Surface 488); label: 3' end held by stalled T7 RNA polymerase
This listing pairs binders with measured Kd.
EXPERIMENTAL_READOUT: Kd (nM)

1. target 3 insC 3' of 5,insC 3' of 3 (mixed) RNA 1: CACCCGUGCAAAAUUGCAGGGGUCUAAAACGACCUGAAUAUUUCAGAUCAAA RNA 2: GGGAAUGGAUCCACAUCUACGAAUUCGUUUUUGAUCUGAAAUAUUCACGGCUCUGCAGAUCGGAAGAGCACACGU
19.6
2. target 1 MT 5'PFS GCA 3'PFS UCC (mixed) RNA 1: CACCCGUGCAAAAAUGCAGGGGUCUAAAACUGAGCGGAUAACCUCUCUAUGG RNA 2: GGGAAUGGAUCCACAUCUACGAAUUCGCACCAUAGAGAGGUUAUCCGCUCAUCCAGAUCGGAAGAGCACACGU
13.7
